Items are presented alongside their recorded Simulated intestinal juice (2 h, 37° C.) (FeSSIF) % active drug generated.
experiment: Stability in simulated intestinal juice (FeSSIF); format: in vitro ADME; details: FeSSIF pH 5.0, pancreatin 1%
# value in %; strip the unit string

Molecule: CCOC(=O)[C@@H](NC(=O)CCCC(=O)OC1=C(CC2CCN(Cc3ccccc3)CC2)Cc2cc(OC)c(OC)cc21)C(C)C [Donepezil glutaryl valine ethyl ester]
Observed value: 3

Prompt: Determine its reported Simulated intestinal juice (2 h, 37° C.) (FeSSIF) % active drug generated: CCOC(=O)c1ccc(NC(=O)CCCC(=O)OC2=C(CC3CCN(Cc4ccccc4)CC3)Cc3cc(OC)c(OC)cc32)cc1 [Donepezil glutaryl PABA ethyl ester]
Response: 1

* * *

assay: Stability in USP simulated gastric juice; type: in vitro ADME; conditions: USP SGF pH 1.1, pepsin […], prodrug 20 μg/mL
Measure: Simulated gastric juice (1 h, 37° C.) % active drug generated

Check out these entries, answers already filled in.
Compound: CCCC1CC(C(=O)NC(C(C)Cl)C2OC(SC)C(OC(=O)CCC(=O)N[C@H](C(=O)O)C(C)C)C(O)C2O)N(C)C1 (stereo partly drawn)
Observed value: <1%
--
Compound: CCCC1CC(C(=O)NC(C(C)Cl)C2OC(SC)C(OC(=O)CCCC(=O)Nc3ccc(C(=O)O)cc3)C(O)C2O)N(C)C1.O=C(O)C(F)(F)F (stereo not drawn)
Observed value: <1%

Field: next compound
Prompt: Determine its reported Simulated gastric juice (1 h, 37° C.) % active drug generated: COc1cc2c(cc1OC)C(OC(=O)CCCC(=O)N[C@H](C(N)=O)C(C)C)=C(CC1CCN(Cc3ccccc3)CC1)C2 [Donepezil glutaryl valinamide]
Response: <2.0%

* * *

Items are presented alongside their recorded Simulated intestinal juice (2 h, 37° C.) (FeSSIF) % active drug generated.
assay: Stability in simulated intestinal juice (FeSSIF); type: in vitro ADME; conditions: FeSSIF pH 5.0, pancreatin 1%

Check out these entries, answers already filled in.
Compound: COc1cc2c(cc1OC)C(OC(=O)CCCC(=O)N[C@H](C(N)=O)C(C)C)=C(CC1CCN(Cc3ccccc3)CC1)C2 [Donepezil glutaryl valinamide]
Observed value: <2.0%
//
Compound: CCCC1CC(C(=O)NC(C(C)Cl)C2OC(SC)C(OC(=O)CCCC(=O)Nc3ccc(C(=O)O)cc3)C(O)C2O)N(C)C1.O=C(O)C(F)(F)F (stereo not drawn)
Observed value: <1%

Prompt: Determine its reported Simulated intestinal juice (2 h, 37° C.) (FeSSIF) % active drug generated: CCCC1CC(C(=O)NC(C(C)Cl)C2OC(SC)C(OC(=O)CCC(=O)N[C@H](C(=O)O)C(C)C)C(O)C2O)N(C)C1 (stereo partly drawn)
Response: <1%
